*1 amine or outer side, *2 acyl side, *3 side chain or, on linkers, in order; H or OH if unused. Where a SMILES comes first, the peptide text is derived from it. Bridges are numbered along the chain shown (N, C = ends). [ ]: non-standard residue; d: D form. The star is where a group is joined. Phe(3,5-F2) = N[C@@H](Cc1cc(F)cc(F)c1)C(=O)O; NH(4-OCF3-phenyl) = FC(F)(F)Oc1ccc(N*)cc1; Pro(4S-Me) = C[C@@H]1CN[C@H](C(=O)O)C1; Pro(4R-Me) = C[C@H]1CN[C@H](C(=O)O)C1; NHPh(4-CF3) = FC(F)(F)c1ccc(N*)cc1; Hyp = O=C(O)[C@@H]1C[C@@H](O)CN1; NMeT = CN[C@H](C(=O)O)[C@@H](C)O; NH(4-Me-phenyl) = Cc1ccc(N*)cc1; aThr = C[C@H](O)[C@H](N)C(=O)O; Pip = O=C(O)[C@@H]1CCCCN1; NMeA = CN[C@@H](C)C(=O)O; CO = O=C([*:1])[*:2]
// MIC collected for Streptococcus pneumoniae, R6
# number only, unit µM dropped from output

>>> assay_value("C[C@@H]1C[C@H]2C(=O)O[C@@H](C)[C@H](NC(=O)[C@H](Cc3cc(F)cc(F)c3)NC(=O)Nc3ccc(OC(F)(F)F)cc3)C(=O)N3CCC[C@H]3C(=O)N(C)[C@@H]([C@@H](C)O)C(=O)N[C@@H](C)C(=O)N2C1 [Compound 41] ({NH(4-OCF3-phenyl)-CO}-[Phe(3,5-F2)][aThr]P[NMeT]A[Pro(4R-Me)]; ester 2-C)")
0.02

Value sought: MIC, system Streptococcus pneumoniae, R6, item C[C@@H]1NC(=O)[C@@H]2CCCCN2C(=O)[C@@H]2CCCN2C(=O)[C@@H](NC(=O)[C@H](Cc2cc(F)cc(F)c2)NC(=O)Nc2ccc(C(F)(F)F)cc2)[C@H](C)OC(=O)[C@@H]2CCCN2C1=O [Compound 16] ({NHPh(4-CF3)-CO}-[Phe(3,5-F2)][aThr]P[Pip]AP; ester 2-C) . Result: 0.8

Value sought: MIC, system Streptococcus pneumoniae, R6, item Cc1ccc(NC(=O)N[C@@H](Cc2cc(F)cc(F)c2)C(=O)N[C@@H]2C(=O)N3C[C@H](O)C[C@H]3C(=O)N(C)[C@@H](C)C(=O)N[C@@H](C)C(=O)N3C[C@@H](C)C[C@H]3C(=O)O[C@H]2C)cc1 [Compound 214] ({NH(4-Me-phenyl)-CO}-[Phe(3,5-F2)][aThr][Hyp][NMeA]A[Pro(4S-Me)]; ester 2-C) . Result: 0.195

From: patent US10457707B2
